- experimental target: T1, murine DR5 ECD-AcTev-hu Fc-Avi (murine, UniProt Q9QZM4 53-153)
- T1 construct: range 53-153; also called mouse DR5
- experiment: binding ELISA
property: binding result

Past entries and their recorded results:
Task: Requested read-out: binding result. Entry: DR5TAA-0005 (antibody, V domains shown, rabbit IgG; also called 039; clone 039) VH: QSLEESGGRLVTPGTPLTLTCTASGFSLSSAYMSWVRQAPGKGLEWIGYIYSGSGSTWYASWVKGRFTISKTSTTVDLKITSPTTEDTATYFCARGYSTMGDLWGPGTLVTVSS VL: QVLTQTPSPVSAAVGGTVTINCQASQSVYNNRLAWYQQKPGQPPKLLIYLASTLASGVPSRFKGSGSGTQFTLTISDLQCDDAATYYCAGGYSGNINAFGGGTEVVVKG
Output: no binding

Task: Requested read-out: binding result. Entry: DR5TAA-0019 (antibody, V domains shown, rabbit IgG) VH: QSVEESGGRLVTPGTPLTLTCTVSGFSLSNYAMSWVRQAPGKGLEWIGIISSSGTTYYASWAKGRFTISKTSTTVDLKVTSPTTEDTATYFCARETYYGYSYAAGLWGPGTLVTVSS VL: ALVMTQTPSSVSAAVGGTVTINCQASQNIYSNLAWFQQKPGQPPKLLIYETSKLASGVPSRFSGSGSGTEFTLTISDLECDDAATYYCQSSWHSISTDCAFGGGTEVVVKG
Output: no binding

Task: Requested read-out: binding result. Entry: DR5TAA-0006 (antibody, V domains shown, rabbit IgG; also called 058; clone 058) VH: QSLEESGGRLVTPGTPLTLTCTASGFSLSSNHMSWVRQAPGKGLEWIGYIYAGSGSAYYASWAKGRFTISRTSTTVDLKMTSLTTEDTATYFCAGDAGSSYWEFNLWGPGTLVTVSS VL: LVMTQTPSSTSEPVGGTVTIKCQASQSIGSSLSWYQQKPGQPPKLLIYHASTLASGVPSRFSGSRSGIQTTLTISGVQCDDAATYYCLGVADARRDDGFAFGGGTEVVVKG
Output: no binding

Task: Requested read-out: binding result. Entry: DR5TAA-0011 (antibody, V domains shown, also called 174; clone 174) VH: QSVEESGGRLVTPGTPLTLTCTVSGFSISRYAMIWVRQAPGEGLEYIGFITSDSSAYYASWAKGRFTISKTSTTVDLKMTSPTTEDTATYFCARYTYSDGTDLWGPGTLVTVSS VL: DIVMTQTPASVSEPVGGTVTIKCQASQSISTYLSWYQQKPGQPPKRLIYKASTLASGVPSRFKGSGSGTDFTLTIRDLECADAATYYCQPNSGIATYGAAFGGGTEVVVKG
Output: no binding

Task: Requested read-out: binding result. Entry: DR5TAA-0016 (antibody, V domains shown) VH: QSLEESGGRLVKPDETLTLTCTVSGFSLNNYAMSWVRQAPGKGLEWIGMINKYGTKYYATWTKGRATISKTSTTLDLEITSPTTEDTATYFCARVRYAGDDYAEWLDVWGQGILVTVSS VL: DIVMTQTASPVSAAVGGTVTINCQASQSISSSYVSWYQQKPGQPPKLLIYKASTLASGVPSRFSGSGSGTQLSLTIRGVQCDDAATYYCLYGYSDVSSSEYVFGGGTEVVVRG
Output: no binding

For every item below, please supply its binding result.
1. DR5TAA-0013 (antibody, V domains shown, rabbit IgG; also called 298; clone 298) VH: QSLEESGGRLVTPGTPLTLTCTASGFTISSYHMSWVRQAPGKGLEWIGYIYAGSASTWYASWVKGRFTISKTSTTVDLKMTSLTTEDTATYFCARDAGSSYWEFNLWGPGTLVTVSS VL: LVMTQTPSSTSEPVGGTVTIKCQASQSIGSSLSWYQQTPGQPPKLLIYTASSLASSVPKRFSGSRSGTQFTLTISGVQCADAATYYCLGIDDVRRDDGFAFGGGTEVVVKG
2. DR5TAA-0010 (antibody, V domains shown, rabbit IgG; also called 481; clone 481) VH: QSLEESGGRLVKPDETLTLTCTVSGFSLSSNAISWVRQAPGMGLEWIGIIGSSGYTYYASWAKGRFTVSKTSTTVDLEIASPTTEDTATYFCARGYSGASDYSFNLWGPGTLVTVSS VL: AYDMTQTPDSVEVAVGGTVTIKCQASQTIGDALAWYQQKPGQRPNLLIYRTSTLASGVPSRFSGSGSGTHFTLTISGVECADAATYYCQQGATYNNVLNTFGGGTEVVVKG

Output:
no binding
no binding
